- TARGET_DESC: Polyunsaturated fatty acid 5-lipoxygenase (Homo sapiens)
- EXPERIMENT_DESCRIPTION: Inhibition of 5-lipoxygenase-mediated 5(S)-H(p)ETE formation in fMLP-stimulated human PMNL incubated 10 mins prior to fMLP challenge
pIC50: −log10 of the molar value.
MEASUREMENT_LABEL: pIC50

// known answers, use as guide
INSERT INTO results (compound, target_desc, readout_value) VALUES
  ('O=C(O)C(Sc1nc(OCCc2ccccc2)cc(OCCc2ccccc2)n1)c1ccccc1 (stereo not drawn)', 'Polyunsaturated fatty acid 5-lipoxygenase (Homo sapiens)', 6.10),
  ('CCCC/C(=C\c1cccc(OCCc2ccccc2)c1OCCc1ccccc1)C(=O)O', 'Polyunsaturated fatty acid 5-lipoxygenase (Homo sapiens)', 6.10),
  ('CCCCC(Sc1nc(OCc2ccccc2)cc(OCc2ccccc2)n1)C(=O)O (stereo not drawn)', 'Polyunsaturated fatty acid 5-lipoxygenase (Homo sapiens)', 5.74),
  ('CCCC/C(=C\c1cc(OCCc2ccccc2)ccc1OCCc1ccccc1)C(=O)O', 'Polyunsaturated fatty acid 5-lipoxygenase (Homo sapiens)', 6.05);

a. CCCCC(Cc1cc(OCCc2ccccc2)ccc1OCCc1ccccc1)C(=O)O (stereo not drawn)
b. CCC(Sc1nc(OCCc2ccccc2)cc(OCCc2ccccc2)n1)C(=O)O (stereo not drawn)
c. CCCCCCC(Sc1nc(OCCc2ccccc2)cc(OCCc2ccccc2)n1)C(=O)O (stereo not drawn)
### Prompt Hey, can you sort those compounds up there by pIC50, smallest first? Response field: labels, in requested order.
### Response b, a, c
(b: 5.55, a: 6.05, c: 6.40)

* * *

- TARGET_DESC: Polyunsaturated fatty acid 5-lipoxygenase (Homo sapiens)
- Sequence (P09917 whole entry): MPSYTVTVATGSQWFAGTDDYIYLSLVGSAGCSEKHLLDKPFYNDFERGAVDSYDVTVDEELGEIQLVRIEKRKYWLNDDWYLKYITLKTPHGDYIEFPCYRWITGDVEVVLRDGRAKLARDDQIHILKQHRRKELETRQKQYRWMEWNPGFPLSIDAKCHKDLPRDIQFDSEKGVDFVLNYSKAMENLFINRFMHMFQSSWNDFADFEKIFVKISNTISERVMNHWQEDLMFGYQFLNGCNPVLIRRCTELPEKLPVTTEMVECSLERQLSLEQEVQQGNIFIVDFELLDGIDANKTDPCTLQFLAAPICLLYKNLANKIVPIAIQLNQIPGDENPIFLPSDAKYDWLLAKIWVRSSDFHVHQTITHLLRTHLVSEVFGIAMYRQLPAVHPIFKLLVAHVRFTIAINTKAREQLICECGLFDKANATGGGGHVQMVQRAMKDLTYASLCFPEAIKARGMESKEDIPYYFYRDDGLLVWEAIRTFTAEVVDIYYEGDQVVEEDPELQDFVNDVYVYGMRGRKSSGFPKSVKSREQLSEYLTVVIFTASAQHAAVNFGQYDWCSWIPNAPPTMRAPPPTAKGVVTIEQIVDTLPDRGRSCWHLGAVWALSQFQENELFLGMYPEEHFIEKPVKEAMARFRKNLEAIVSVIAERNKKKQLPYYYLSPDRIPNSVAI
- EXPERIMENT_DESCRIPTION: Inhibition of human recombinant 5-lipoxygenase-mediated product formation from arachidonic acid after 5 to 10 mins by HPLC analysis
pIC50: −log10 of the molar value.
MEASUREMENT_LABEL: pIC50

Sample answers from the record:
INSERT INTO assay_data (molecule, measurement_label, readout_value) VALUES
  ('CCCCCCC(Sc1nc(OCCc2ccccc2)cc(OCCc2ccccc2)n1)C(=O)O (centres undefined)', 'pIC50', 5.55),
  ('CCCC/C(=C\c1cc(OCc2ccc(C(F)(F)F)cc2)ccc1OCc1ccc(C(F)(F)F)cc1)C(=O)O', 'pIC50', 5.36),
  ('CCCCC(Sc1cc(OCCc2ccccc2)cc(OCCc2ccccc2)c1)C(=O)O (centres undefined)', 'pIC50', 5.14),
  ('CCCCC(Sc1nc(OCCCc2ccccc2)cc(OCCCc2ccccc2)n1)C(=O)O (centres undefined)', 'pIC50', 5.57);

a. CCCCC(Sc1nc(OCCC2CC2)cc(OCCC2CC2)n1)C(=O)O (centres undefined)
b. CCCCC(Sc1nc(OCCc2ccc([N+](=O)[O-])cc2)cc(OCCc2ccc([N+](=O)[O-])cc2)n1)C(=O)O (centres undefined)
### Prompt Field: lower recorded pIC50 (choose a or b ) State your choice using its label.
### Response a
(a: 5.03, b: 5.55)
